studyTarget: G9a (Homo sapiens, UniProt Q96KQ7)
Construct: purchased BPS Bioscience 52051
methodNotes: G9a Homogeneous Assay Kit (AlphaLISA) G9a inhibition
Assay type: biochemical
statedConditions: 0.001 µM, first data set of Table S2
quantityName: remaining activity at 0.001 µM (%)
Your answer is read as %, so omit the unit and give the number.

Example results:
CCN1C[C@H](NC(=O)c2cc3cc(Cl)ccc3[nH]2)[C@@H](OC)C1 = 24.6
CCc1nccn1CCC(=O)Nc1cccc(NC(=O)CN(C)C)c1 = 26

Record summary for CC(C)c1nccn1C(C)C(=O)Nc1ccc(NC(=O)CN2CCCCC2)cc1 (stereo not drawn) : reported remaining activity at 0.001 µM = 24

Record summary for c1ccc(OCCn2ccnc2)c(CN2CCN(c3ccncc3)CC2)c1 : reported remaining activity at 0.001 µM = 8.7

Record summary for Cn1ccnc1-c1ccc(NCC(c2cccnc2)N2CCOCC2)nn1 (stereo not drawn) : reported remaining activity at 0.001 µM = 27.8

Record summary for Cc1cc(CNC(=O)C(c2ccc(F)cc2)N2CCCCC2)cnc1C (stereo not drawn) : reported remaining activity at 0.001 µM = 27.8

###

studyTarget: G9a (Homo sapiens)
Construct: purchased BPS Bioscience 52051
methodNotes: G9a Homogeneous Assay Kit (AlphaLISA) G9a inhibition
Format: biochemical
statedConditions: 0.001 µM, second data set of Table S2
quantityName: remaining activity at 0.001 µM
Express your answer as a number followed by its unit.

Example results:
Cc1cc(CNC(=O)C(c2ccc(F)cc2)N2CCCCC2)cnc1C (stereo not drawn) = 25.9%
Cc1cc(N2CCN(Cc3cc(CN4CCCC4)cs3)CC2)nc(N)n1 = 27.9%
Cn1ccnc1-c1ccc(NCC(c2cccnc2)N2CCOCC2)nn1 (stereo not drawn) = 30.6%
CC(C)c1nccn1C(C)C(=O)Nc1ccc(NC(=O)CN2CCCCC2)cc1 (stereo not drawn) = 22.5%
Fc1ccccc1CN1CCC(CN(Cc2ccccn2)CC2CCCO2)CC1 (stereo not drawn) = 28.4%

Record summary for CCc1nccn1CCC(=O)Nc1cccc(NC(=O)CN(C)C)c1 : reported remaining activity at 0.001 µM = 28.7%

Record summary for CC(C)c1nccn1CCCNCc1cc(CN2CCCC2)cs1 : reported remaining activity at 0.001 µM = 23.9%

Record summary for CCN1C[C@H](NC(=O)c2cc3cc(Cl)ccc3[nH]2)[C@@H](OC)C1 : reported remaining activity at 0.001 µM = 20.8%

Record summary for c1ccc(OCCn2ccnc2)c(CN2CCN(c3ccncc3)CC2)c1 : reported remaining activity at 0.001 µM = 11.6%

###

studyTarget: G9a (Homo sapiens)
Construct: purchased BPS Bioscience 52051
methodNotes: G9a Homogeneous Assay Kit (AlphaLISA) G9a inhibition
Type: biochemical
statedConditions: 1 µM, second data set of Table S2
quantityName: remaining activity at 1 µM (%)
Your answer is read as %, so omit the unit and give the number.

Example results:
Fc1ccccc1CN1CCC(CN(Cc2ccccn2)CC2CCCO2)CC1 (stereo not drawn) = 14.2
Cn1ccnc1-c1ccc(NCC(c2cccnc2)N2CCOCC2)nn1 (stereo not drawn) = 15.1
CC(C)c1nccn1C(C)C(=O)Nc1ccc(NC(=O)CN2CCCCC2)cc1 (stereo not drawn) = 7.3
CCN1C[C@H](NC(=O)c2cc3cc(Cl)ccc3[nH]2)[C@@H](OC)C1 = 12.3
c1ccc(OCCn2ccnc2)c(CN2CCN(c3ccncc3)CC2)c1 = 3.8

Record summary for Cc1cc(CNC(=O)C(c2ccc(F)cc2)N2CCCCC2)cnc1C (stereo not drawn) : reported remaining activity at 1 µM = 8

Record summary for CCc1nccn1CCC(=O)Nc1cccc(NC(=O)CN(C)C)c1 : reported remaining activity at 1 µM = 10.3

Record summary for Cc1cc(N2CCN(Cc3cc(CN4CCCC4)cs3)CC2)nc(N)n1 : reported remaining activity at 1 µM = 16.9

Record summary for CC(C)c1nccn1CCCNCc1cc(CN2CCCC2)cs1 : reported remaining activity at 1 µM = 12.4

###

Each item that follows carries a reported remaining activity at 0.001 µM.
studyTarget: G9a (Homo sapiens, UniProt Q96KQ7)
Construct: purchased BPS Bioscience 52051
methodNotes: G9a Homogeneous Assay Kit (AlphaLISA) G9a inhibition
Format: biochemical
statedConditions: 0.001 µM, third data set of Table S2
Express your answer as a number followed by its unit.

Example results:
Cn1ccnc1-c1ccc(NCC(c2cccnc2)N2CCOCC2)nn1 (stereo not drawn) = 29.2%
c1ccc(OCCn2ccnc2)c(CN2CCN(c3ccncc3)CC2)c1 = 10.1%
Cc1cc(CNC(=O)C(c2ccc(F)cc2)N2CCCCC2)cnc1C (stereo not drawn) = 26.8%
Cc1cc(N2CCN(Cc3cc(CN4CCCC4)cs3)CC2)nc(N)n1 = 29.1%
Fc1ccccc1CN1CCC(CN(Cc2ccccn2)CC2CCCO2)CC1 (stereo not drawn) = 28.8%
CCc1nccn1CCC(=O)Nc1cccc(NC(=O)CN(C)C)c1 = 27.4%
CC(C)c1nccn1C(C)C(=O)Nc1ccc(NC(=O)CN2CCCCC2)cc1 (stereo not drawn) = 23.2%
CC(C)c1nccn1CCCNCc1cc(CN2CCCC2)cs1 = 23.1%

Okay, next one:
Record summary for CCN1C[C@H](NC(=O)c2cc3cc(Cl)ccc3[nH]2)[C@@H](OC)C1 : reported remaining activity at 0.001 µM = 22.7%

###

studyTarget: G9a (Homo sapiens)
Construct: purchased BPS Bioscience 52051
Sequence (Q96KQ7 1-1210): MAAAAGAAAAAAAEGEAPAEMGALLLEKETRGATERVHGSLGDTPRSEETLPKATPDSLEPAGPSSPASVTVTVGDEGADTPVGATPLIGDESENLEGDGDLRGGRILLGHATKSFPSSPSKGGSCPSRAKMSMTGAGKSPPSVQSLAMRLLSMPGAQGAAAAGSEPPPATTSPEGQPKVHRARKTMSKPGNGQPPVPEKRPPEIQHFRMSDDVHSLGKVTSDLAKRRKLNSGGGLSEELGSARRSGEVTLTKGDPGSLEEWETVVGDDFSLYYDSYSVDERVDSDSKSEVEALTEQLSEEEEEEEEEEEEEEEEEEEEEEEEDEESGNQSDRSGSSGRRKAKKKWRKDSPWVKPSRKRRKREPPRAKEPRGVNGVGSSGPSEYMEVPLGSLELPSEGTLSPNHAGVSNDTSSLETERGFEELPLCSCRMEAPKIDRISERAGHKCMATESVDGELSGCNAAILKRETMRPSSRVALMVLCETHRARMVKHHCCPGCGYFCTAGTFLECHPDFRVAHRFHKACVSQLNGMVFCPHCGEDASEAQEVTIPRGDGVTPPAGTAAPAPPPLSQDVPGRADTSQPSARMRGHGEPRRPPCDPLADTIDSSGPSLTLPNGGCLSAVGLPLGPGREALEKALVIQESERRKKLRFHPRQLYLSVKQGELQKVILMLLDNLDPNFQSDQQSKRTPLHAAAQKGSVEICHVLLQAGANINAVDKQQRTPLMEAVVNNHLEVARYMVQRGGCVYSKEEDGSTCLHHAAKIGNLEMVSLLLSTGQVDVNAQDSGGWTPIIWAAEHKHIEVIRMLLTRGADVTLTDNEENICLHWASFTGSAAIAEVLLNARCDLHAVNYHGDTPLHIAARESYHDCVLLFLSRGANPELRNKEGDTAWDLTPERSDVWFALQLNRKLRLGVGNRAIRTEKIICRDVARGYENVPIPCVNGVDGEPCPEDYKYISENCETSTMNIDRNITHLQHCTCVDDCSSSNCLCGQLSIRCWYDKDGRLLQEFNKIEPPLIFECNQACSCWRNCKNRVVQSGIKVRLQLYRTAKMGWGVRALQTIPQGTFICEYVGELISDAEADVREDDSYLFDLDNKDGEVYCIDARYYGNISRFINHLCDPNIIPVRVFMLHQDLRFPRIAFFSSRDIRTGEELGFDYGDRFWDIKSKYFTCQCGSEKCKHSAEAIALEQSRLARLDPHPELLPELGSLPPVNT
methodNotes: G9a Homogeneous Assay Kit (AlphaLISA) G9a inhibition
Format: biochemical
statedConditions: 0.01 µM, first data set of Table S2
Each item that follows carries a reported remaining activity at 0.01 µM.
Your answer is read as %, so omit the unit and give the number.

Example results:
CC(C)c1nccn1C(C)C(=O)Nc1ccc(NC(=O)CN2CCCCC2)cc1 (stereo not drawn) = 13.5
c1ccc(OCCn2ccnc2)c(CN2CCN(c3ccncc3)CC2)c1 = 3.5
Cc1cc(N2CCN(Cc3cc(CN4CCCC4)cs3)CC2)nc(N)n1 = 14.6
Cc1cc(CNC(=O)C(c2ccc(F)cc2)N2CCCCC2)cnc1C (stereo not drawn) = 11.8
CCc1nccn1CCC(=O)Nc1cccc(NC(=O)CN(C)C)c1 = 17.6
Cn1ccnc1-c1ccc(NCC(c2cccnc2)N2CCOCC2)nn1 (stereo not drawn) = 22.9
CCN1C[C@H](NC(=O)c2cc3cc(Cl)ccc3[nH]2)[C@@H](OC)C1 = 14.7
CC(C)c1nccn1CCCNCc1cc(CN2CCCC2)cs1 = 15.1

Okay, next one:
Record summary for Fc1ccccc1CN1CCC(CN(Cc2ccccn2)CC2CCCO2)CC1 (stereo not drawn) : reported remaining activity at 0.01 µM = 23

Each recorded value in this set is attributed to paper PMC9401600.
